- target_under_test: T1, human IL-2Rα (human, UniProt P01589 22-240, limits assumed)
- T1 construct: recombinant protein; also called hu IL-2R; human IL-2Ra
- T1 sequence: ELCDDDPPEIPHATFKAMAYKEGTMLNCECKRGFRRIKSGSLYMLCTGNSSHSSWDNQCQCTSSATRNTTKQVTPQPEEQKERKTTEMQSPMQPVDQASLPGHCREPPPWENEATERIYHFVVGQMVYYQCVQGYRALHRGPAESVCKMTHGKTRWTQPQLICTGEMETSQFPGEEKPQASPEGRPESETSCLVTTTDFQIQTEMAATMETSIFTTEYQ
- test_protocol: SPR, P.E. on immobilised antigen
- Method: SPR was performed to determine dissociation rates using Biacore 3000 instrument (GE Healthcare). Briefly, human and mouse IL-2R proteins were immobilized on carboxylmethyl dextran sensor chip (CM5) at approximately 2500 RUs using amine coupling in acetate buffer (GE Healthcare). The VHH-containing P.E. were loaded with a flow rate of 30 uL/min and the off-rates were measured over a 120s period.
Can you tell me koff for the items I'm about to list?
One number for each entry, in s⁻¹.

binder="FJ1427_P035MP05C04 (VHH, periplasmic extract; also called clone nr; 411) VHH: EVQLVESGGGSVQAGGSLRLSCEASGRTLFSSYGMGWFRQAPGKEREFVGAISRFGTYTSYADPVKDRFTISRDNAKSTVYLQMNNTKPEDTAVYYCAAYTYSGSFYSTVKTHHDEYRYWGQGTQVTVSS" experimental_result=0.000905
binder="FJ1427_P035MP05H08 (VHH, periplasmic extract; also called clone nr) VHH: QLQLVESGGGLVQAGGSLRLSCAASGLTFDGYAIGWFRQASGKEREGVSYINGRDGSTFYADSVKGRFIISSDNAKNTVDLQMNSLKPDDAAVYYCAVDRLGSRGAYVSTWWRSPDMDLWGKGTLVTVSS" experimental_result=0.00278
binder="FJ1427_P035MP01C11 (VHH, periplasmic extract; also called clone nr; 83) VHH: QVQLVESGGGLVQAGGSLRLSCAASGGTFRTRNMGWFRRAPGKEREFVAAVSWNVDNKLYAGSVKGRFTISRDNGRNMVYLQMNSLKPEDTAVYYCAADNIPLSSDMRPTATEYDYWGQGTQVTVSS" experimental_result=0.000556

Recall and state the measured koff for FJ1427_P035MP01C03 (VHH, periplasmic extract; also called clone nr; 19) VHH: EVQLVESGGGLVQPGGSLRLSCATSGFTFRNNFMSWVRQAPGKGLEWVSTISYGGESTTYAESVKGRFTISRDNAKNTLYLQMNNLKPEDTAVYYCAKATSYDSIRSGSRGQGTQVTVSS .
0.00144
